From: the supplement of paper PMC8149375

Test system: SN12C
Experiment: GI50, drug alone; higher = less potent
Conditions: treatment: drug alone; 5 days
Ranges used to classify GI50, drug alone: group A (below 2 µM), group B (2 µM to below 5 µM), group C (5 µM or more)

// below: answered compounds
{"columns": ["Compound", "Class"],
 "data": [
  ["C[C@@H](Oc1cc(-c2cnn(C3CCNCC3)c2)cnc1N)c1c(Cl)ccc(F)c1Cl", "group B"],
  ["COc1ccc(-c2cc3c(C)nc(N)nc3n([C@H]3CC[C@H](OCCO)CC3)c2=O)cn1", "group A"],
  ["Cc1ncc(-c2ccnc(Nc3ccc(S(C)(=O)=O)cc3)n2)n1C(C)C [AZD5438]", "group A"],
  ["CC(C)(C)c1nc(-c2cccc(NS(=O)(=O)c3c(F)cccc3F)c2F)c(-c2ccnc(N)n2)s1", "group C"],
  ["CCc1cc(Nc2nccc(-c3c(-c4ccc(OC)c(C(=O)Nc5c(F)cccc5F)c4)nc4ccccn34)n2)c(OC)cc1N1CCC(N2CCN(S(C)(=O)=O)CC2)CC1", "group C"]
]}

Lab note: sort "Cc1cc2c(F)c(Oc3ncnn4cc(OC[C@@H](C)O)c(C)c34)ccc2[nH]1" into the matching GI50, drug alone band.
group C

Lab note: sort CS(=O)(=O)CCNCc1ccc(-c2ccc3ncnc(Nc4ccc(OCc5cccc(F)c5)c(Cl)c4)c3c2)o1.Cc1ccc(S(=O)(=O)O)cc1.Cc1ccc(S(=O)(=O)O)cc1 [Lapatinib Ditosylate (Tykerb)] into the matching GI50, drug alone band.
group C

Lab note: sort N#CCNC(=O)c1ccc(-c2ccnc(Nc3ccc(N4CCOCC4)cc3)n2)cc1 [Cyt387] into the matching GI50, drug alone band.
group C

Lab note: sort "NCC(=O)Nc1ccc(-n2nc(C(F)(F)F)cc2-c2ccc3c(ccc4ccccc43)c2)cc1" into the matching GI50, drug alone band.
group B

Lab note: sort COc1cc2nccc(Oc3ccc(NC(=O)C4(C(=O)Nc5ccc(F)cc5)CC4)cc3)c2cc1OC [XL-184 free base (Cabozantinib)] into the matching GI50, drug alone band.
group C

Lab note: sort C=CCc1cccc(/C=N/NC(=O)CN2CCN(Cc3ccccc3)CC2)c1O [PAC-1] into the matching GI50, drug alone band.
group B

* * *

Tested on: 769-P
Assay: minimum viability across doses, drug alone, relative to DMSO (fraction); higher = less growth inhibition
Conditions: treatment: drug alone; 5 days
Quick reference for minimum viability across doses among some molecules

# count of solved cases: 3
{"columns": ["Molecule", "Target or system", "minimum viability across doses"],
 "data": [
  ["CC(C)(C)c1cnc(CSc2cnc(NC(=O)C3CCNCC3)s2)o1", "769-P", 0.0214],
  ["CNC(=O)Nc1ccc(-c2nc(N3CC4CCC(C3)O4)c3cnn(C4CCC5(CC4)OCCO5)c3n2)cc1", "769-P", 0.101],
  ["Cn1cc(-c2ccc3nnc(C(F)(F)c4ccc5ncccc5c4)n3n2)cn1", "769-P", 0.868]
]}

Param item = "COc1cc2c(Oc3ccc4[nH]c(C)cc4c3F)ncnc2cc1OCCCN1CCCC1" ; retrieve measured minimum viability across doses.
0.293

Param item = "COc1ccc2c(c1OC)N=C(NC(=O)c1cccnc1)N1CCN=C21" ; retrieve measured minimum viability across doses.
0.693

Param item = "CC(C)c1ccccc1Cc1cc(C(=O)Nc2ccc(S(=O)(=O)c3ccccc3C(C)(C)C)cc2)c(O)c(O)c1O" ; retrieve measured minimum viability across doses.
0.0442

Param item = "CC(O)C(=O)O.CC(O)C(=O)O.CN1CCN(c2ccc3nc(-c4c(N)c5c(F)cccc5[nH]c4=O)[nH]c3c2)CC1" ; retrieve measured minimum viability across doses.
0.034

Param item = "FC(F)c1nc2ccccc2n1-c1nc(N2CCOCC2)nc(N2CCOCC2)n1" ; retrieve measured minimum viability across doses.
0.127

Param item = "CC1(C)CCC(CN2CCN(c3ccc(C(=O)NS(=O)(=O)c4ccc(NCC5CCOCC5)c([N+](=O)[O-])c4)c(Oc4cnc5[nH]ccc5c4)c3)CC2)=C(c2ccc(Cl)cc2)C1" ; retrieve measured minimum viability across doses.
0.88

Param item = COc1cc2nccc(Oc3ccc(NC(=O)C4(C(=O)Nc5ccc(F)cc5)CC4)cc3)c2cc1OC [XL-184 free base (Cabozantinib)] ; retrieve measured minimum viability across doses.
0.557

Param item = "COc1cc2c(Nc3ccc(NC(=O)c4ccccc4)cc3)ncnc2cc1OCCCN1CCOCC1" ; retrieve measured minimum viability across doses.
0.24
